# TEST SYSTEM: 5-hydroxytryptamine receptor 1A (Rattus norvegicus)
# Sequence (P19327 whole entry): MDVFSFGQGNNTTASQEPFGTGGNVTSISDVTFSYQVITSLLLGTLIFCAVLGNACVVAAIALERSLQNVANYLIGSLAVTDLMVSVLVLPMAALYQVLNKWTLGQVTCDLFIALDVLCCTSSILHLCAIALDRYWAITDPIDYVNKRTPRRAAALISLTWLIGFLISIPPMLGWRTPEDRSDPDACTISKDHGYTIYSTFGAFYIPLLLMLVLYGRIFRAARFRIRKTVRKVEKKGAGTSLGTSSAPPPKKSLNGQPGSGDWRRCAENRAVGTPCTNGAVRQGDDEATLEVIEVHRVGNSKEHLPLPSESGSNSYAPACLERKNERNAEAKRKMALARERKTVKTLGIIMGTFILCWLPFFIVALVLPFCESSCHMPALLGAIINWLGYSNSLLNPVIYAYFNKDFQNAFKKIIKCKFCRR
READOUT LABEL: Ki (µM)

# MOLECULE SMILES, REPORTED RESULT
records = [
    ("O=C1CC2(CCCC2)CC(=O)N1CCN1CCc2ccccc2C1", 1.33),
]

[I] O=C1CC2(CCCC2)CC(=O)N1CCCCN1CCc2ccccc2C1
[II] O=C1c2ccccc2C(=O)N1CCN1CCc2ccccc2C1
## Input Compare I and II by numeric Ki and name the larger one. Answer by stating the label of the chosen item.
## Output II
(II: 41.3 µM, I: 0.005 µM)
